Listed next: entries and their corresponding clearance.
test: Total clearance in C57BL/6J mouse at 1 mg/kg, iv measured during 5 mins to 24 hrs by LC/MS/MS method; assay type: ADME, organism-based; conditions: in vivo
Write it as a number; the unit mL/min/kg goes unstated.

Take a look at these entries with their results.
compound_structure	unit_abbrev	clearance
CC[C@](C)(NC(=O)[C@H]1C[C@H](O)CN1C(=O)[C@H](CO)NC(=O)c1c[nH]cn1)C(=O)N[C@@H](Cc1ccncc1)C(=O)N[C@@H](CC1CCCCC1)C(=O)N[C@@H](CC(C)(C)C)C(=O)N[C@@H](CC(N)=O)C(=O)N[C@@H](CCCCN)C(=O)NC(C)(C)C(=O)N[C@H](C(=O)N[C@@H](CCCNC(=N)N)C(=O)N[C@@H](CCC(N)=O)C(=O)N[C@@H](CCCNC(=N)N)C(=O)N[C@@H](CC1CCCCC1)C(N)=O)[C@@H](C)O	mL/min/kg	14.2
CC[C@](C)(NC(=O)[C@H](CC1CCCCC1)NC(=O)[C@H](Cc1ccncc1)NC(=O)[C@](C)(CC)NC(=O)[C@H]1C[C@H](O)CN1C(=O)[C@H](CO)NC(C)=O)C(=O)N[C@@H](CC(N)=O)C(=O)N[C@@H](CCCCN)C(=O)NC(C)(C)C(=O)N[C@H](C(=O)N[C@@H](CCCNC(=N)N)C(=O)N[C@@H](CCC(N)=O)C(=O)N[C@@H](CCCNC(=N)N)C(=O)N[C@@H](CC1CCCCC1)C(N)=O)[C@@H](C)O	mL/min/kg	19.5

Please look at the following molecule next.
### Prompt Identify measured clearance corresponding to `CC[C@](C)(NC(=O)[C@H]1CCCN1C(=O)[C@H](CO)NC(C)=O)C(=O)N[C@@H](Cc1ccncc1)C(=O)N[C@@H](CC1CCCCC1)C(=O)NC(C)(C)C(=O)N[C@@H](CC(N)=O)C(=O)N[C@@H](CCCCN)C(=O)NC(C)(C)C(=O)N[C@H](C(=O)N[C@@H](CCCNC(=N)N)C(=O)N[C@@H](CCC(N)=O)C(=O)N[C@@H](CCCNC(=N)N)C(=O)N[C@@H](CC1CCCCC1)C(N)=O)[C@@H](C)O`
### Response 41
